Items are presented alongside their recorded IC50 at 6 days.
# method_summary: Cytotoxicity against human WI-38 VA13 cells assessed as inhibition in cell growth measured after 6 days by MTT assay
# Type: toxicity, cell-based
# reported_conditions: WI-38 VA13 cells
assay_metric: IC50 at 6 days

>  <compound>
COc1cc(Nc2nc(N3CCN(CCOCCNc4cccc5c4C(=O)N(C4CCC(=O)N(C)C4=O)C5=O)CC3)ncc2F)ccc1NC(=O)c1ccc(C2=CCCC2)s1 (configuration not stated)

>  <result>
> 10 µM

$$$$
>  <compound>
COc1cc(Nc2nc(N3CCN(CCOCCNc4cccc5c4C(=O)N(C4CCC(=O)NC4=O)C5=O)CC3)ncc2F)ccc1NC(=O)c1ccc(C2=CCCC2)s1 (configuration not stated)

>  <result>
> 10 µM

$$$$
